# tested_target: Cholinesterase (Equus caballus, UniProt P81908)
# Sequence (P81908 whole entry): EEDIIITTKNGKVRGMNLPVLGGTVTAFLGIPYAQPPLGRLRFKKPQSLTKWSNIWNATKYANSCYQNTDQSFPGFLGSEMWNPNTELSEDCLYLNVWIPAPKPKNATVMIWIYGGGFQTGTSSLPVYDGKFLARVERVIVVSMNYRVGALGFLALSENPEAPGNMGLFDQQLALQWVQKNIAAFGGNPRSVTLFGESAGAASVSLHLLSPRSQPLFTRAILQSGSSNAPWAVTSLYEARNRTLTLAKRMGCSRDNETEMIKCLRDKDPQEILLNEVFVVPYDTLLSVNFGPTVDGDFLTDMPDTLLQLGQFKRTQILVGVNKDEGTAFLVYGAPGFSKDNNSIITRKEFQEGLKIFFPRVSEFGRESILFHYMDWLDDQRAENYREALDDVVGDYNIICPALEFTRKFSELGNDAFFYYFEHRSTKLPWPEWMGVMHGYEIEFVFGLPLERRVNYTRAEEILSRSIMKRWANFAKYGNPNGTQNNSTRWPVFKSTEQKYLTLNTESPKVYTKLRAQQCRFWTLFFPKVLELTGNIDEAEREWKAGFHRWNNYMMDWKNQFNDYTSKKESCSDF
# assay_explanation: Inhibition of equine serum BChE using butyrylthiocholine iodide as substrate by spectrophotometer analysis
pIC50: −log10 of the molar value.
Lab note: compare pIC50 against 4. Equal or greater, write MET. Smaller, write NOT MET.

Recorded results for 5 molecules are shown here.
Decide: is the reported value of pIC50 for "O=C(CCCOc1ccc2ccc(=O)oc2c1)N1CCC(Cc2ccccc2)CC1" equal to or greater than 4?
NOT MET

Decide: is the reported value of pIC50 for "COc1ccc(CCNC(=O)COc2ccc3ccc(=O)oc3c2)cc1OC" equal to or greater than 4?
NOT MET

Decide: is the reported value of pIC50 for "Cc1cc(=O)oc2cc(OCCCC(=O)N3CCC(O)(c4ccc(Br)cc4)CC3)ccc12" equal to or greater than 4?
NOT MET

Decide: is the reported value of pIC50 for "Cc1cc(=O)oc2cc(OCCCC(=O)N3CCN(c4ccccc4O)CC3)ccc12" equal to or greater than 4?
NOT MET

Decide: is the reported value of pIC50 for "O=C(COc1ccc2ccc(=O)oc2c1)N1CCC(Cc2ccccc2)CC1" equal to or greater than 4?
MET

Please examine the following record next.
Decide: is the reported value of pIC50 for "O=C(COc1ccc2ccc(=O)oc2c1)N1CCN(c2ccccc2)CC1" equal to or greater than 4?
MET

###

# assay_explanation: Antioxidant activity assessed as ferric ion reducing activity using fe3+-TPTZ measured per gram of protein by FRAP assay
# Assay type: functional
List of Activity values.
Dear colleague, please return just the value in µmol, with no unit written.

Measured Activity of "Cc1cc(=O)oc2cc(OCCCC(=O)N3CCN(c4ccccc4O)CC3)ccc12" : 2.01

Continuing:
Measured Activity of "O=C(COc1ccc2ccc(=O)oc2c1)N1CCN(c2ccc(Cl)c(Cl)c2)CC1" : 2.01

Measured Activity of "O=C(CCCOc1ccc2ccc(=O)oc2c1)N1CCC(O)(c2ccc(Br)cc2)CC1" : 0.03

Measured Activity of "O=C(CCCOc1ccc2ccc(=O)oc2c1)N1CCN(c2ccccc2F)CC1" : 0.15

Measured Activity of "O=C(COc1ccc2ccc(=O)oc2c1)N1CCN(c2ccccc2F)CC1" : 0.07

Measured Activity of "O=C(CCCOc1ccc2ccc(=O)oc2c1)N1CCC(Cc2ccccc2)CC1" : 1.61

###

# assay_explanation: Antioxidant activity assessed as ferric ion reducing activity using fe3+-TPTZ measured per gram of protein by FRAP assay
# Assay type: functional
quantity_measured: log10 Activity (log10 of the value in µmol)
Units before log transform: µmol; reported quantity: Activity; transform: log10.

Measured log10 Activity of "O=C(COc1ccc2ccc(=O)oc2c1)N1CCN(c2ccccc2)CC1" : 0.29

Measured log10 Activity of "O=C(COc1ccc2ccc(=O)oc2c1)NC1CCN(Cc2ccccc2)CC1" : -1.22

Measured log10 Activity of "O=C(CCCOc1ccc2ccc(=O)oc2c1)N1CCN(c2ccccc2O)CC1" : 0.45

Measured log10 Activity of "O=C1O[C@H]([C@@H](O)CO)C(O)=C1O" : 0.86

Measured log10 Activity of "Cc1cc(=O)oc2cc(OCCCC(=O)N3CCN(c4ccccc4F)CC3)ccc12" : -1.00

Continuing:
Measured log10 Activity of "Cc1cc(=O)oc2cc(OCCCC(=O)N3CCN(c4ccccc4)CC3)ccc12" : -1.15

Measured log10 Activity of "Cc1cc(=O)oc2cc(OCCCC(=O)N3CCN(c4ccc(F)cc4)CC3)ccc12" : -1.10

Measured log10 Activity of "Cc1cc(=O)oc2cc(OCCCC(=O)N3CCC(O)(c4ccc(Br)cc4)CC3)ccc12" : -1.22

Measured log10 Activity of "O=C(CCCOc1ccc2ccc(=O)oc2c1)N1CCN(c2ccc(F)cc2)CC1" : 0.14

Measured log10 Activity of "COc1ccc(CCNC(=O)COc2ccc3ccc(=O)oc3c2)cc1OC" : 0.73

Cited source: ChEMBL document CHEMBL3286322
